Source: patent US20150037328A1

target: T1, human CXCR4 (chemokine (C-X-C motif) receptor 4) (human, UniProt P61073 1-352); experiment: flow cytometry on HPB-ALL cells, Fab at 0.25 µg/ml
T1 construct: Endogenous on human tumour cell lines (Ramos, HPB-ALL, Raji, Jurkat, MM1.S, RPMI-8226, MOLP-8, MOLT-4) or transfected into CHO-K1 cells (DiscoveRx); also called CXCR4 receptor
T1 sequence (P61073 whole entry): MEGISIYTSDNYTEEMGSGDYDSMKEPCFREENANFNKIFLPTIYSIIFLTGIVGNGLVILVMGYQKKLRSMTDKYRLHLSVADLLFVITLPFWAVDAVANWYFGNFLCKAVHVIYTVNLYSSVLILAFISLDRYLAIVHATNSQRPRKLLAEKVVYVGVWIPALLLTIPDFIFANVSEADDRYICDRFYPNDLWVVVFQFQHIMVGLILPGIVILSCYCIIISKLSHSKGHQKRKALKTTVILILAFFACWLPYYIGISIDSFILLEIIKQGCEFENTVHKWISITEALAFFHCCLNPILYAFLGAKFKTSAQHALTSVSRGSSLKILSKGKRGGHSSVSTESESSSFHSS
metric: MFI
Response field accepts a number only; no unit should be typed.

{"binder": "h3G10.1.7 VH / h3G10.2.72 VL Fab (Fab, V domains shown, Tested as Fab) VH: EVQLVESGGGLVQPGGSLRLSCAASGFTFSDYYMSWVRQAPGKGLEWVGFIRHKANKYTTEYSTSVKGRFTISRDDSKNSLYLQMNSLKTEDTAVYYCARDLPGFAYWGQGTLVTVSS VL: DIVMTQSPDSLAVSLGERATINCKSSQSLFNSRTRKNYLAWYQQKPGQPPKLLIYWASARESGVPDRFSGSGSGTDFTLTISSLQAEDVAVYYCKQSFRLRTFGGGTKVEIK", "MFI": 768}

Can you look up the measured MFI of h3G10.A57 VH / h3G10.2.25 VL Fab (Fab, V domains shown, Tested as Fab) VH: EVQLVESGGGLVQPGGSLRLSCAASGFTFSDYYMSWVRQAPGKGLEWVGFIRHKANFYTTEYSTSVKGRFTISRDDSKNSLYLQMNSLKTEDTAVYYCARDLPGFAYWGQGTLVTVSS VL: DIVMTQSPDSLAVSLGERATINCRSSQSLFNSRTRKNYLAWYQQKPGQPPKLLIYWASARESGVPDRFSGSGSGTDFTLTISSLQAEDVAVYYCKQSFRLRTFGGGTKVEIK for me?
1380
